Origin of measurements: patent US20260130395A1

Test: Stability of cannabinoid compounds and Vitamin E components in Beverage 2 (AB Red) by LCMSMS
Type: physicochemical
Conditions: stored at 8° C., 22 days
Readings of Stability of Plant-Derived Cannabinoid Compounds in AB Red for the listed molecules
The response must be a number in µg/mL with no trailing unit.

Take a look at these entries with their results.
[
  {
    "molecule": "CCCCCc1cc(O)c2c(c1)OC(C)(CCC=C(C)C)C=C2 (stereo not shown)",
    "recorded measurement": 0.287
  },
  {
    "molecule": "CCCc1cc(O)c2c(c1)OC(C)(C)[C@@H]1CCC(C)=C[C@@H]21 [THCV, delta-9-tetrahydrocannabivarin]",
    "recorded measurement": 3.22
  },
  {
    "molecule": "C=C(C)[C@@H]1CCC(C)=C[C@H]1c1c(O)cc(CCC)cc1O",
    "recorded measurement": 0.200
  }
]

Now consider a different molecule.
-- ask Item CCCCCc1cc(O)c(C/C=C(\C)CCC=C(C)C)c(O)c1 has what recorded Stability of Plant-Derived Cannabinoid Compounds in AB Red?
-- reply 4.70

###

# key: entry, value: Stability of Plant-Derived Cannabinoid Compounds in AB Red
Assay: Stability of cannabinoid compounds and Vitamin E components in Beverage 2 (AB Red) by LCMSMS
Format: physicochemical
Conditions: stored at 8° C., 30 days
// units = µg/mL; emit number, no label

Check out these entries, answers already filled in.
[
  {
    "molecule": "C=C(C)[C@@H]1CCC(C)=C[C@H]1c1c(O)cc(CCC)cc1O [CBDV, cannabidivarin]",
    "recorded measurement": 0.200
  },
  {
    "molecule": "CCCc1cc(O)c2c(c1)OC(C)(C)[C@@H]1CCC(C)=C[C@@H]21 [THCV, delta-9-tetrahydrocannabivarin]",
    "recorded measurement": 3.20
  },
  {
    "molecule": "CCCCCc1cc(O)c2c(c1)OC1(C)CCC3C1C2C3(C)C (stereo not shown) [CBL, cannabicyclol]",
    "recorded measurement": 0.511
  }
]

Field: next molecule
-- ask Returns the measured Stability of Plant-Derived Cannabinoid Compounds in AB Red for the input molecule. Input: C=C(C)[C@@H]1CCC(C)=C[C@H]1c1c(O)cc(CCCCC)c(C(=O)O)c1O [CBDA, cannabidiolic acid]
-- reply 1.70

###

Test: Stability of cannabinoid compounds and Vitamin E components in Beverage 1 (AB White) by LCMSMS
Assay type: physicochemical
Conditions: AB White stored at 21-25° C.; 150 days
Simple rule here: Stability of Plant-Derived Cannabinoid Compounds in AB White, 21-25° C. less than 0.9 µg/mL is y, otherwise n.

Solved cases (5 shown):
[
  {
    "compound": "CCCCCc1cc(O)c2c(c1)OC(C)(CCC=C(C)C)C=C2 (stereo not drawn)",
    "label class": "y"
  },
  {
    "compound": "CCCCCc1cc(O)c2c(c1)OC1(C)CCC3C1C2C3(C)C (stereo not drawn)",
    "label class": "y"
  },
  {
    "compound": "CCCCCc1cc(O)c(C/C=C(\\C)CCC=C(C)C)c(O)c1",
    "label class": "n"
  },
  {
    "compound": "C=C(C)[C@@H]1CCC(C)=C[C@H]1c1c(O)cc(CCCCC)c(C(=O)O)c1O",
    "label class": "n"
  },
  {
    "compound": "CCCc1cc(O)c2c(c1)OC(C)(C)[C@@H]1CCC(C)=C[C@@H]21 [THCV, delta-9-tetrahydrocannabivarin]",
    "label class": "n"
  }
]

Let us examine a further case.
-- ask Could you please tell me whether Stability of Plant-Derived Cannabinoid Compounds in AB White, 21-25° C. recorded for C=C(C)[C@@H]1CCC(C)=C[C@H]1c1c(O)cc(CCC)cc1O is less than 0.9 µg/mL?
-- reply y

###

Listing: Stability of Plant-Derived Cannabinoid Compounds in AB Red of selected compounds
Experiment: Stability of cannabinoid compounds and Vitamin E components in Beverage 2 (AB Red) by LCMSMS
Assay type: physicochemical
Settings: stored at 8° C., 360 days
Report the value in µg/mL with no unit label.

Please review the following examples before continuing.
[
  {
    "compound": "C=C(C)[C@@H]1CCC(C)=C[C@H]1c1c(O)cc(CCC)cc1O",
    "units label": "µg/mL",
    "recorded measurement": 0.193
  },
  {
    "compound": "CCCCCc1cc(O)c2c(c1)OC(C)(CCC=C(C)C)C=C2 (stereo not shown)",
    "units label": "µg/mL",
    "recorded measurement": 0.282
  },
  {
    "compound": "CCCCCc1cc(O)c(C/C=C(\\C)CCC=C(C)C)c(O)c1",
    "units label": "µg/mL",
    "recorded measurement": 4.63
  }
]

-- ask # get_value(readout='Stability of Plant-Derived Cannabinoid Compounds in AB Red', item= C=C(C)[C@@H]1CCC(C)=C[C@H]1c1c(O)cc(CCCCC)c(C(=O)O)c1O )
-- reply 1.62

###

The entries below are paired with their reported Stability of Plant-Derived Cannabinoid Compounds in Powder Concentrate.
Experiment: Stability of cannabinoid entourage and Vitamin E components of the powder concentrate by LCMSMS
Format: physicochemical
Conditions: powder stored at 21-25° C.; 450 days
Form entry: enter the amount, then its unit.

Below, each entry is followed by its recorded Stability of Plant-Derived Cannabinoid Compounds in Powder Concentrate result.
[
  {
    "compound": "CCCCCc1cc(O)c2c(c1)OC1(C)CCC3C1C2C3(C)C (stereo not shown)",
    "recorded measurement": "0.052 mg/g powder"
  },
  {
    "compound": "C=C(C)[C@@H]1CCC(C)=C[C@H]1c1c(O)cc(CCCCC)c(C(=O)O)c1O",
    "recorded measurement": "0.398 mg/g powder"
  },
  {
    "compound": "CCCCCc1cc(O)c2c(c1)OC(C)(CCC=C(C)C)C=C2 (stereo not shown)",
    "recorded measurement": "0.073 mg/g powder"
  },
  {
    "compound": "CCCCCc1cc(O)c(C/C=C(\\C)CCC=C(C)C)c(O)c1",
    "recorded measurement": "1.06 mg/g powder"
  },
  {
    "compound": "CCCCCc1cc(O)c2c(c1)OC(C)(C)c1ccc(C)cc1-2",
    "recorded measurement": "0.480 mg/g powder"
  },
  {
    "compound": "CCCCCc1cc2c(c(O)c1C(=O)O)[C@@H]1C=C(C)CC[C@H]1C(C)(C)O2 [D9 THCA, delta-9-tetrahydrocannabinolic acid]",
    "recorded measurement": "0.155 mg/g powder"
  },
  {
    "compound": "CCCc1cc(O)c2c(c1)OC(C)(C)[C@@H]1CCC(C)=C[C@@H]21 [THCV, delta-9-tetrahydrocannabivarin]",
    "recorded measurement": "0.680 mg/g powder"
  },
  {
    "compound": "CCCCCc1cc(O)c2c(c1)OC(C)(C)[C@@H]1CCC(C)=C[C@@H]21 [D9 THC, delta-9-tetrahydrocannabinol, reference compound]",
    "recorded measurement": "2.61 mg/g powder"
  },
  {
    "compound": "C=C(C)[C@@H]1CCC(C)=C[C@H]1c1c(O)cc(CCC)cc1O",
    "recorded measurement": "0.049 mg/g powder"
  }
]

-- ask So what does the record say about Stability of Plant-Derived Cannabinoid Compounds in Powder Concentrate for C=C(C)[C@@H]1CCC(C)=C[C@H]1c1c(O)cc(CCCCC)cc1O [CBD, cannabidiol, reference compound] ?
-- reply 5.65 mg/g powder

###

List of Stability of Plant-Derived Cannabinoid Compounds in Powder Concentrate values.
Experiment: Stability of cannabinoid entourage and Vitamin E components of the powder concentrate by LCMSMS
Assay type: physicochemical
Settings: powder stored at 21-25° C.; 540 days
Just the number in mg/g powder, nothing appended.

[
  {
    "compound": "CCCCCc1cc(O)c2c(c1)OC(C)(C)c1ccc(C)cc1-2",
    "recorded measurement": 0.492
  },
  {
    "compound": "CCCCCc1cc(O)c2c(c1)OC1(C)CCC3C1C2C3(C)C (stereo not drawn)",
    "recorded measurement": 0.048
  },
  {
    "compound": "CCCCCc1cc(O)c2c(c1)OC(C)(C)[C@@H]1CCC(C)=C[C@@H]21 [D9 THC, delta-9-tetrahydrocannabinol, reference compound]",
    "recorded measurement": 2.47
  },
  {
    "compound": "CCCCCc1cc2c(c(O)c1C(=O)O)[C@@H]1C=C(C)CC[C@H]1C(C)(C)O2 [D9 THCA, delta-9-tetrahydrocannabinolic acid]",
    "recorded measurement": 0.154
  }
]

-- ask What value of measured Stability of Plant-Derived Cannabinoid Compounds in Powder Concentrate is listed for C=C(C)[C@@H]1CCC(C)=C[C@H]1c1c(O)cc(CCC)cc1O ?
-- reply 0.052

-- ask Data request, read-out Stability of Plant-Derived Cannabinoid Compounds in Powder Concentrate, for C=C(C)[C@@H]1CCC(C)=C[C@H]1c1c(O)cc(CCCCC)c(C(=O)O)c1O
-- reply 0.425
